Values were extracted from patent US20020028938A1.

Reported values of RHUCX2 % Inh. at Dose (μM) for individual entries
biological target: recombinant human Cox-2 (r-hu Cox-2) (Homo sapiens); construct: made in house; host or cells: baculovirus/Sf9 insect cells (microsomes); assay: Recombinant human PGHS-2 enzyme assay (RHUCX2); format: biochemical; details: 0.1 μM
Sequence (P35354 18-604): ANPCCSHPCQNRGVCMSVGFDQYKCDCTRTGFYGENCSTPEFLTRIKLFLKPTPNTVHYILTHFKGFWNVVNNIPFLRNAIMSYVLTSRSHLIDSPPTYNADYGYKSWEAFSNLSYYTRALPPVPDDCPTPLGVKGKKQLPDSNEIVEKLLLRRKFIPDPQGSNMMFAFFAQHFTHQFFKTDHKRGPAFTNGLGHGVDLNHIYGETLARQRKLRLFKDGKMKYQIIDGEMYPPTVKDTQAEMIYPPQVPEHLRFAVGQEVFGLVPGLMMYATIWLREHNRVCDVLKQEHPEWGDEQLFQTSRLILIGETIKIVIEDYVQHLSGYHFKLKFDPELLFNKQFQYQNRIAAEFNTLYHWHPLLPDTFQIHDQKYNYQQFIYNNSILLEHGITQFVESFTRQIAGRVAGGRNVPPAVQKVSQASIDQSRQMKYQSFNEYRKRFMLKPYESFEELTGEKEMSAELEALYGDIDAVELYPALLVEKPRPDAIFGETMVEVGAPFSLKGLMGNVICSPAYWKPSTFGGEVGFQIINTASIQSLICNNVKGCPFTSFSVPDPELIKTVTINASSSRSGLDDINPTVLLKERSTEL

Study these solved cases before continuing.
[
  {
    "chemical string": "CS(=O)(=O)c1ccc(-c2cnn(-c3ccc(F)cc3)c(=O)c2COc2ccc(F)cc2)cc1",
    "measurement name": "RHUCX2 % Inh. at Dose (μM)",
    "result": "72 @ 0.1%"
  },
  {
    "chemical string": "CC(C)=CCOc1c(-c2ccc(S(C)(=O)=O)cc2)cnn(-c2ccc(F)cc2)c1=O",
    "measurement name": "RHUCX2 % Inh. at Dose (μM)",
    "result": "37 @ 0.1%"
  },
  {
    "chemical string": "CS(=O)(=O)c1ccc(-c2cnn(CC(F)=C(F)F)c(=O)c2-c2ccc(F)cc2)cc1",
    "measurement name": "RHUCX2 % Inh. at Dose (μM)",
    "result": "35 @ 0.1%"
  }
]

Let us examine a further case.
Annotate the molecule `CN(Cc1ccccc1)c1c(-c2ccc(S(C)(=O)=O)cc2)cnn(-c2cccc(Cl)c2)c1=O` with its measured RHUCX2 % Inh. at Dose (μM).
36 @ 0.1%
